B1: MATN2 (parent)
chain: FIVDILQFLDIGPDVTRVGLLQYG

variants of: B1; test: protein stability index of a GFP-peptide fusion (GPS, HEK-293T) (PSI 1-6); higher = more stable; settings: c terminus: a fixed tail appended;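 note: lentivirally expressed fusions sorted by FACS into six bins by GFP to DsRed ratio, PSI derived from sequencing read proportions per bin multiplied by bin number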
PROPERTY_NAME: protein stability index
// response body must contain only the number

1. L21T; 2.95

Provide one value: measured protein stability index of "T16M"
1.06

Give recorded protein stability index. "L21W"
3.27

For the variant "Q22Y" , report protein stability index.
4.14

For the variant "V3H" , give its reported protein stability index.
4.66

Write down protein stability index measured for item "F1A"
2.61

Determine its reported protein stability index: "Q22F"
3.25

Name the recorded protein stability index of the item "D10T" in your answer.
3.42

Provide only the value of recorded protein stability index for "G12S"
2.61
